Biological target: BTK (Homo sapiens)
Sequence (Q06187 402-655 limits assumed): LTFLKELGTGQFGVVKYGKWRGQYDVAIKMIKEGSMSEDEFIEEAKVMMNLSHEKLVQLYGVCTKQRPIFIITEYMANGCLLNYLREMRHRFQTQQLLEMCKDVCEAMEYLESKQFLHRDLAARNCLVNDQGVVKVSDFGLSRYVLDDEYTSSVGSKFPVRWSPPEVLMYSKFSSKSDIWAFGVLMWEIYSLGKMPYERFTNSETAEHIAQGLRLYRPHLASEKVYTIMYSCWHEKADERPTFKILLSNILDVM
Assay: biochemical
Conditions: read-out: BTK inhibition (%), 0.75 uM BTK, […] probe 3l, 15 min preincubation
Measured quantity: inhibition at 10 µM
In your response, put the unit directly after the numeric value.

Bench note: what inhibition at 10 µM did C#C[C@]1(O)CC[C@H]2[C@@H]3CCc4cc(OC)ccc4[C@H]3CC[C@@]21C show? 8.6%

Bench note: what inhibition at 10 µM did CN(C)CC[C@H](CSc1ccccc1)Nc1ccc(S(=O)(=O)NC(=O)c2ccc(N3CCN(Cc4ccccc4-c4ccc(Cl)cc4)CC3)cc2)cc1[N+](=O)[O-] show? 19.3%

Bench note: what inhibition at 10 µM did C[C@@H](c1ccc2nccn2c1)n1nnc2ncc(-c3cnn(C)c3)nc21 show? -9.3%

Bench note: what inhibition at 10 µM did O=C(/C=C\n1cnc(-c2cc(C(F)(F)F)cc(C(F)(F)F)c2)n1)NNc1ccccn1 show? -19.3%

Bench note: what inhibition at 10 µM did CC(=O)c1cc2c(o1)C(=O)c1ccccc1C2=O show? -0.8%

Bench note: what inhibition at 10 µM did CNC(=O)c1c(F)cccc1Nc1nc(Nc2cc3c(cc2OC)CCN3C(=O)CN(C)C)nc2[nH]ccc12 show? 13.8%

Bench note: what inhibition at 10 µM did CCN(CC)C[C@@H](O)CNc1ccc(NC[C@H]2CO2)c2c1C(=O)c1ccccc1C2=O show? 57.9%

Bench note: what inhibition at 10 µM did Cn1sc(=O)n(Cc2ccccc2)c1=O show? 4.8%

Bench note: what inhibition at 10 µM did CC(=O)OCOC(=O)CN(CC(=O)OCOC(C)=O)c1ccccc1OCCOc1ccccc1N(CC(=O)OCOC(C)=O)CC(=O)OCOC(C)=O show? -27.8%

Bench note: what inhibition at 10 µM did O=C1Nc2ccc(CN3C(=O)CSC3=O)cc2/C1=C/c1cc(CN2CCOCC2)c[nH]1 show? -11%

Bench note: what inhibition at 10 µM did O=C(NCCS(=O)(=O)c1ccc(C(F)(F)F)cn1)c1ccc(Cl)cc1 show? 16.6%

Bench note: what inhibition at 10 µM did COc1ccc([C@@H]2CC(=O)c3c(O)cc(O[C@@H]4O[C@H](CO[C@@H]5O[C@@H](C)[C@H](O)[C@@H](O)[C@H]5O)[C@@H](O)[C@H](O)[C@H]4O)cc3O2)cc1O show? -7%

Bench note: what inhibition at 10 µM did O=C(NC(NC(=S)Nc1ccc(F)c([N+](=O)[O-])c1)C(Cl)(Cl)Cl)C(c1ccccc1)c1ccccc1 (centres unmarked) show? 106%

Bench note: what inhibition at 10 µM did CNCc1ccc(-c2cc(-c3nc(-c4ccc(S(=O)(=O)C(C)C)cc4)cnc3N)on2)cc1 show? 17.9%

Bench note: what inhibition at 10 µM did COc1ccccc1-c1cc(Nc2cccc(CS(N)(=O)=O)c2)ncn1 show? 2.8%

Bench note: what inhibition at 10 µM did O=C(NCCCn1ccnc1)c1cc(-c2ccco2)on1 show? -9.3%

Bench note: what inhibition at 10 µM did O=C1[C@H]2CCCC[C@H]2C(=O)N1CCCCN1CCN(c2nsc3ccccc23)CC1 show? -9.3%

Bench note: what inhibition at 10 µM did FC(F)c1nc2ccccc2n1-c1nc(N2CCOCC2)nc(N2CCOCC2)n1 show? 16.6%

Bench note: what inhibition at 10 µM did Cc1c(C(=O)N2CCOc3ccc(-c4ccc(N)nc4)cc3C2)ccc(S(C)(=O)=O)c1F show? 1.4%

Bench note: what inhibition at 10 µM did CN(C)C(=O)COC(=O)Cc1ccc(OC(=O)c2ccc(N=C(N)N)cc2)cc1 show? -6.2%

Bench note: what inhibition at 10 µM did CO[C@H]1C[C@H](O[C@@H]2/C(C)=C/C[C@@H]3C[C@@H](C[C@]4(CC[C@H](C)[C@@H](C5CCCCC5)O4)O3)OC(=O)[C@@H]3C=C(C)/C(=N/O)[C@H]4OC/C(=C\C=C\[C@@H]2C)[C@]43O)O[C@@H](C)[C@@H]1O show? 41.7%

Bench note: what inhibition at 10 µM did COc1cc2ncnc(Oc3ccc(CC(=O)Nc4cnn(C(C)C)c4)cc3)c2cc1OC show? -11.7%

Bench note: what inhibition at 10 µM did Cc1cc(O)c2c(c1)C(=O)c1cccc(O)c1C2=O show? -4.8%

Bench note: what inhibition at 10 µM did CO/N=C(\C(=O)N[C@@H]1C(=O)N2C(C(=O)[O-])=C(C[n+]3cccc4c3CCCC4)CS[C@H]12)c1csc(N)n1 show? 9.3%

Bench note: what inhibition at 10 µM did Nc1ccc2ncnc(NCCc3ccc(Oc4ccccc4)cc3)c2c1 show? -4.1%

Bench note: what inhibition at 10 µM did COc1ccc(-c2coc3cc(O)ccc3c2=O)cc1 show? 0.8%

Bench note: what inhibition at 10 µM did NS(=O)(=O)c1cc(C(=O)O)c(NCc2ccco2)cc1Cl show? -2.3%

Bench note: what inhibition at 10 µM did OCc1ccc(O)cc1 show? 9.3%

Bench note: what inhibition at 10 µM did CCCCCCC(O)C(=O)O (centres unmarked) show? -10%

Bench note: what inhibition at 10 µM did O=C(NCC1(c2nc(-c3ccccc3)cs2)CCOCC1)c1cccc(-c2noc(C(F)(F)F)n2)c1 show? -9.3%

Bench note: what inhibition at 10 µM did CCC(C)(Oc1ccc(C2(c3ccc(OC(C)(CC)C(=O)O)cc3)CCCCC2)cc1)C(=O)O (centres unmarked) show? 15.6%

Bench note: what inhibition at 10 µM did NCCCCCNCC12CC3CC(CC(C3)C1)C2 show? -19.5%
